System: Histophilus somni
Test: minimum inhibitory concentration (MIC)
Conditions: isolate (source animal id): 252
READOUT_NAME: minimum inhibitory concentration (µg/mL)
Hi! Could you send only the number? It should be in µg/mL, unit omitted.

Below are worked cases with known answers.
COMPOUND | minimum inhibitory concentration (µg/mL)
NC[C@@H]1O[C@H](O[C@H]2[C@@H](O)[C@H](O[C@@H]3[C@@H](O)[C@H](N)C[C@H](N)[C@H]3O[C@H]3O[C@H](CN)[C@@H](O)[C@H](O)[C@H]3N)O[C@@H]2CO)[C@H](N)[C@@H](O)[C@@H]1O | 32
CNC(C)C1CCC(N)C(OC2C(N)CC(N)C(OC3OCC(C)(O)C(NC)C3O)C2O)O1 (stereo not given) | 2

Request: minimum inhibitory concentration, test system Histophilus somni, entry CC[C@H]1OC(=O)C[C@@H](O)[C@H](C)[C@@H](O[C@@H]2O[C@H](C)[C@@H](O)[C@H](N(C)C)[C@H]2O)[C@@H](CCN2C[C@H](C)C[C@H](C)C2)C[C@@H](C)C(=O)/C=C/C(C)=C/[C@@H]1CO[C@@H]1O[C@H](C)[C@@H](O)[C@@H](OC)[C@H]1OC
16

Item: CC[C@H]1OC(=O)C[C@@H](O)[C@H](C)[C@@H](O[C@@H]2O[C@H](C)[C@@H](O[C@H]3C[C@@](C)(O)[C@@H](O)[C@H](C)O3)[C@H](N(C)C)[C@H]2O)[C@@H](CC=O)C[C@@H](C)C(=O)/C=C/C(C)=C/[C@@H]1CO[C@@H]1O[C@H](C)[C@@H](O)[C@@H](OC)[C@H]1OC
16
